# method-summary: Pharmacokinetic analysis of the KHKi in vivo
# Parameters: species or system mice
# experimental-parameters: mouse, KHKi 10 mg/kg

molecule	half-life / h
N#Cc1c(C(F)(F)F)cc(N2CCN(CCO)CC2)nc1N1CCCC(CO)C1 (stereo not shown)	2

###

# method-summary: Pharmacokinetic analysis of the KHKi in vivo
# Parameters: species or system mice
# experimental-parameters: mouse, 10 mg/kg, approximate conversion
quantity-kind: Cmax

compound	quantity-kind	result
N#Cc1c(C(F)(F)F)cc(N2CCN(CCO)CC2)nc1N1CCCC(CO)C1 (stereo not shown)	Cmax	~1000 nM

###

# method-summary: Pharmacokinetic analysis of the KHKi in vivo
# Design: species or system mice
# experimental-parameters: mouse, KHKi 10 mg/kg
quantity-kind: Cmax (ng/mL)

compound	numeric-readout
N#Cc1c(C(F)(F)F)cc(N2CCN(CCO)CC2)nc1N1CCCC(CO)C1 (stereo not shown)	475
